- ASSAY EXPLANATION: chemical genetic growth profiling, strain panel (AID 1159580);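 also: tested at 20 µM; growth read once vehicle control cultures reached saturation at 30 °C; 1 = growth at the plate median or of vehicle wells; lower values mean less growth of the strain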
- TEST PARAMETERS: S. cerevisiae deletion strains, growth OD, locus YDR137W, strain rgp1, stronger effect = lower value
In all, about 5,500 compounds went through this assay and about 2,000 (36%) were called active. Another 18% or so got no clear call; they are omitted. The list shows a part of the results.
Provide the recorded normalized growth for the entries that follow.
Reply with just the number.

Form field: reported normalized growth of O=C(O)c1cc2cc(F)ccc2[nH]1
0.968

Form field: reported normalized growth of O=C(O)/C=C/c1ccc(O)c(O)c1
0.998

Form field: reported normalized growth of O=c1cccc2ccc(O)c(O)c2c1O
0.161

Form field: reported normalized growth of CCN1CCCC(OC(=O)C(c2ccccc2)c2ccccc2)C1 (stereo not drawn)
1.01

Form field: reported normalized growth of C=CCCCCCCCCCCCc1ccco1
0.629

Form field: reported normalized growth of C[C@@H]1CC(Cl)CC[C@H]1C(=O)OC(C)(C)C (stereo partly drawn)
0.93

Form field: reported normalized growth of COc1cc([C@@H]2c3cc4c(cc3[C@@H](O)C3COC(=O)C32)OCO4)cc(OC)c1O (stereo partly drawn)
1

Form field: reported normalized growth of COc1ccc(-c2coc3cc(O)ccc3c2=O)c(O)c1O
1.06

Form field: reported normalized growth of CCCCCCCCCCCCCc1ccco1
0.886

Form field: reported normalized growth of O=C(/C=C/c1ccc(O)c(O)c1)OCCc1ccccc1
0.589

Form field: reported normalized growth of O=C1C(Cl)=C(Cl)C(=O)C(Cl)=C1Cl
0.978

Form field: reported normalized growth of CN(C)CCN(Cc1cccs1)c1ccccn1
1.03

Form field: reported normalized growth of CCCc1cc(C(N)=S)ccn1
0.976

Form field: reported normalized growth of CCN(CC)C(=O)N1CCN(C)CC1
0.917

Form field: reported normalized growth of NCCc1cnc[nH]1
1.03

Form field: reported normalized growth of Cc1ncc(CNC(=O)N(CCCl)N=O)c(N)n1
1.04

Form field: reported normalized growth of C[C@]12CCC(=O)C=C1C=CC1C2CC[C@@]2(C)C1CC[C@@]21CCC(=O)O1 (stereo partly drawn)
0.75

Form field: reported normalized growth of CCCCCCCCC(=O)NCc1ccc(O)c(OC)c1
1.03

Form field: reported normalized growth of O=S(=O)(O)c1cc(N=C=S)ccc1/C=C/c1ccc(N=C=S)cc1S(=O)(=O)O
1.01

Form field: reported normalized growth of CC[C@@H]1C=C/C=C/C[C@H](C)[C@@H](O)[C@](C)(O)C(=O)[C@H](C)[C@@H](O)[C@H](C)C(=O)[C@H](C)[C@@H](O)[C@H](C)/C=C/C(=O)O[C@H]2[C@@H](C)[C@@H](CC1)O[C@@]1(CC[C@@H](C)[C@@H](C[C@H](C)O)O1)[C@@H]2C
0.899

Form field: reported normalized growth of COc1ccc(C(=O)CC(=O)O)c2c1C=CC(C)(C)O2
1.03

Form field: reported normalized growth of COc1cc([C@@H]2c3cc4c(cc3C(OC3O[C@@H]5COC(C)O[C@H]5[C@H](O)[C@H]3O)C3COC(=O)[C@@H]32)OCO4)cc(OC)c1O (stereo partly drawn)
1.06

Form field: reported normalized growth of C[C@]12CCC(=O)C=C1C=CC1C2CC[C@@]2(C)C1CC[C@@]2(O)CCC(=O)O (stereo partly drawn)
0.986

Form field: reported normalized growth of COc1ccc(CN(CCN(C)C)c2ccccn2)cc1
1.04

Form field: reported normalized growth of COc1ccc2c(c1)OC1(O)COc3cc(OC)c(OC)cc3C1=C2 (stereo not drawn)
0.934

Form field: reported normalized growth of Cc1ccc(S(=O)(=O)NC(=O)NN2CCCCCC2)cc1
0.932

Form field: reported normalized growth of NCCS(=O)(=O)O
0.971

Form field: reported normalized growth of COc1ccc2c(c1)OC/C(=C/c1ccc(OC)c(OC)c1)C2=O
0.682

Form field: reported normalized growth of O=C(/C=C/c1ccc(O)c(O)c1)OC(Cc1ccc(O)c(O)c1)C(=O)O (stereo not drawn)
1.09

Form field: reported normalized growth of Cc1ccc(C(=O)Nc2ccc(S(=O)(=O)O)c3cc(S(=O)(=O)O)cc(S(=O)(=O)O)c23)cc1NC(=O)c1cccc(NC(=O)Nc2cccc(C(=O)Nc3cc(C(=O)Nc4ccc(S(=O)(=O)O)c5cc(S(=O)(=O)O)cc(S(=O)(=O)O)c45)ccc3C)c2)c1
1.05

Form field: reported normalized growth of COc1ccc(-c2coc3cc(O)ccc3c2=O)cc1
0.906

Form field: reported normalized growth of CC(=O)S[C@@H]1CC2=CC(=O)CC[C@]2(C)[C@H]2CC[C@@]3(C)[C@@H](CC[C@@]34CCC(=O)O4)C12 (stereo partly drawn)
1

Form field: reported normalized growth of NS(=O)(=O)c1cc2c(cc1Cl)NC=NS2(=O)=O
0.999

Form field: reported normalized growth of COc1ccc(C(=O)O)cc1OC
1.02

Form field: reported normalized growth of Nc1ncn[nH]1
1

Form field: reported normalized growth of CCC(C)C(=O)O[C@@H]1C[C@@]2(C)[C@H](c3ccoc3)OC(=O)CC23OC2(C)OC34[C@H](OC(=O)C(C)C)[C@@]3(O)[C@@H](OC(=O)C5(C)OC5C)[C@@]5(C)C[C@]3(O)[C@@](C)([C@H]5CC(=O)OC)C14O2 (stereo partly drawn)
0.651

Form field: reported normalized growth of OCCc1ccccc1
0.948

Form field: reported normalized growth of CCCCC/C=C/CCC(=O)N[C@H]1[C@H](Oc2c3cc4cc2Oc2ccc(cc2Cl)[C@@H](O[C@@H]2O[C@H](CO)[C@@H](O)[C@H](O)[C@H]2NC(C)=O)[C@@H]2NC(=O)[C@H](NC(=O)[C@@H]4NC(=O)[C@H]4NC(=O)C(Cc5ccc(c(Cl)c5)O3)NC(=O)[C@H](N)c3ccc(O)c(c3)Oc3cc(O)cc4c3)c3ccc(O)c(c3)-c3c(OC4O[C@H](CO)[C@@H](O)[C@H](O)[C@@H]4O)cc(O)cc3[C@@H](C(=O)O)NC2=O)O[C@H](CO)[C@@H](O)[C@@H]1O (stereo partly drawn)
1.01
